Listed below: λabs values for each entry.
experiment: Absorption maximum of the dye; assay type: physicochemical; conditions: solvent PBS pH 7.4
Marks after values point to notes of the source that are not given here.
MEASURED_PARAMETER: λabs

COMPOUND	MEAS_VALUE
Cn1cc[n+](CCCCS(=O)(=O)O)c1C1=c2cc3c(cc2C(C)(C)c2cc4c(cc21)C(CS(=O)(=O)O)=CC(C)(C)N4CCCC(=O)O)=[N+](Cc1ccc(S(=O)(=O)O)cc1S(=O)(=O)O)CCC3	725^b nm
Cn1cc[n+](CCCCS(=O)(=O)O)c1C1=c2cc3c(cc2C(C)(C)c2cc4c(cc21)C(CS(=O)(=O)O)=CC(C)(C)N4CCS(=O)(=O)O)=[N+](CCCC(=O)O)C(C)(C)C=C3CS(=O)(=O)O	739^b nm
CC1(C)C=C(CS(=O)(=O)O)c2cc3c(cc2N1Cc1ccc(S(=O)(=O)O)cc1S(=O)(=O)O)Oc1cc2c(cc1=N3)C(CS(=O)(=O)O)=CC(C)(C)[N+]=2CCCC(=O)O	701^b nm
Cn1cc[n+](CCCC(=O)O)c1C1=c2cc3c(cc2[Si](C)(C)c2cc4c(cc21)C(CS(=O)(=O)O)=CC(C)(C)N4Cc1ccc(S(=O)(=O)O)cc1S(=O)(=O)O)=[N+](Cc1ccc(S(=O)(=O)O)cc1S(=O)(=O)O)C(C)(C)C=C3CS(=O)(=O)O	791^b nm
CC1(C)C=C(CS(=O)(=O)O)c2cc3c(cc2N1CCS(=O)(=O)O)[Si](C)(C)c1cc2c(cc1=C3NC(CCS(=O)(=O)O)C(=O)O)C(CS(=O)(=O)O)=CC(C)(C)[N+]=2CCS(=O)(=O)O (stereo not drawn)	518^b nm
CC1(C)c2cc3c(cc2N=c2cc4c(cc21)=[N+](CCCC(=O)O)C(C)(C)C=C4CS(=O)(=O)O)C(CS(=O)(=O)O)=CC(C)(C)N3Cc1ccc(S(=O)(=O)O)cc1S(=O)(=O)O	758^b nm
CC1(C)C=C(CS(=O)(=O)O)c2cc3c(cc2N1CCCC(=O)O)[Si](C)(C)c1cc2c(cc1=C3)C(CS(=O)(=O)O)=CC(C)(C)[N+]=2CS(=O)(=O)O	715^b nm
CC1(C)C=C(CS(=O)(=O)O)c2cc3c(cc2N1)C(C)(C)c1cc2c(cc1=C3c1c(F)c(F)c(SCC(=O)O)c(F)c1F)C(CS(=O)(=O)O)=CC(C)(C)[N+]=2Cc1ccc(S(=O)(=O)O)cc1	687^b nm
O=C(O)c1ccccc1-c1c2cc/c(=N/c3ccc(S(=O)(=O)O)cc3)cc-2oc2cc(Nc3ccc(S(=O)(=O)O)cc3)ccc12	560^b nm
CC1(C)c2c(cc3c4c2CCCN4CCC3)C=c2cc3c(cc21)=[N+](Cc1ccc(S(=O)(=O)O)cc1S(=O)(=O)O)CCC3	627^b nm
CC1(C)c2cc3c(cc2C(c2c(F)c(F)c(SCCS(=O)(=O)O)c(F)c2F)=c2cc4c(cc21)=[N+](CCc1ccc(S(=O)(=O)O)cc1)C(C)(C)C=C4CS(=O)(=O)O)C(CS(=O)(=O)O)=CC(C)(C)N3CCCC(=O)O	698^b nm
CN(Cc1ccc(S(=O)(=O)O)cc1S(=O)(=O)O)c1ccc2c(c1)[Si](C)(C)C1=C/C(=[N+](/C)Cc3ccc(S(=O)(=O)O)cc3S(=O)(=O)O)C=CC1=C2NCCCC(=O)O	483^b nm
CN(CCCC(=O)O)C(=O)c1ccccc1C1=c2cc3c(cc2C(C)(C)c2cc4c(cc21)C(CS(=O)(=O)O)=CC(C)(C)N4Cc1ccc(S(=O)(=O)O)cc1S(=O)(=O)O)=[N+](Cc1ccc(S(=O)(=O)O)cc1S(=O)(=O)O)C(C)(C)C=C3CS(=O)(=O)O	679^b nm
CC1(C)c2cc3c(cc2C(c2c(Cl)cccc2Cl)=c2cc4c(cc21)=[N+](Cc1ccc(S(=O)(=O)O)cc1S(=O)(=O)O)C(C)(C)CC4CS(=O)(=O)O)CCCN3CCCC(=O)O (stereo not drawn)	654^b nm
CC1(C)c2cc3c(cc2C(NCC(S(=O)(=O)O)S(=O)(=O)O)=c2cc4c(cc21)=[N+](Cc1ccc(S(=O)(=O)O)cc1S(=O)(=O)O)C(C)(C)C=C4CS(=O)(=O)O)CCCN3CCCC(=O)O	490^b nm
CCN(CS(=O)(=O)O)c1ccc2c(c1)[Si](C)(C)C1=C/C(=[N+](/CC)CS(=O)(=O)O)C=CC1=C2NCC(S(=O)(=O)O)S(=O)(=O)O	471^b nm
CN(CCCC(=O)O)C(=O)c1ccccc1-c1c2cc(S(=O)(=O)O)/c(=N/CCc3ccc(S(=O)(=O)O)cc3S(=O)(=O)O)cc-2oc2cc(NCCc3ccc(S(=O)(=O)O)cc3S(=O)(=O)O)c(S(=O)(=O)O)cc12	539^b nm
CC1(C)C=C(CS(=O)(=O)O)c2cc3c(cc2N1Cc1ccc(S(=O)(=O)O)cc1S(=O)(=O)O)[Si](C)(C)c1cc2c(cc1=C3c1cc(C(=O)O)ccc1C(=O)O)C(CS(=O)(=O)O)=CC(C)(C)[N+]=2Cc1ccc(S(=O)(=O)O)cc1S(=O)(=O)O	711^b nm
